biological target: CaRvs167; test: SPOT peptide array binding signal intensity (averaged, normalized) (arbitrary units (background-subtracted, floor 0; scale differs between SH3 domains)); higher = stronger binding of the SH3 domain to the peptide
Would you kindly list SPOT peptide array binding signal intensity for each of these binders?
Enter a number only.

Query: Form field: reported SPOT peptide array binding signal intensity of KLSRGRYGLPLSSRP
Response: 6.5

Query: Next binder: VKPRQLFPIPLNKVD
Response: 54.5

Query: Next binder: RAPPPVPKKPSSRIA
Response: 170

Query: Next binder: WRPRIVPILPYITRL
Response: 54
